# target or test system: T1, human Amyloid beta 1-42 peptide (Homo sapiens, UniProt P05067)
# T1 construct: biotinylated human Amyloid beta 1-42 peptide (rpeptide, USA; cat: A1117); purchased rPeptide, USA A1117; host or cells: synthetic peptide
# T1 sequence (P05067 672-713): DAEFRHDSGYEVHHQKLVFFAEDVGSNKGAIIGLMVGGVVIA
# assay procedure: Surface Plasmon Resonance kinetic profiling of purified scFv (ProteOn)
# Type: binding
# condition: biotinylated human Amyloid beta 1-42 on streptavidin chip
readout label: ka (M⁻¹ s⁻¹)

molecule: Abet0370: optimized anti-Aβ1-42 clone derived from Abet0144-GL (protein, left off: small tags and cut ends, optimized anti-Aβ1-42 clone derived from Abet0144-GL) scFv (part 1 of 2): EVQLLESGGGLVQPGGSLRLSCAASGFHFPMSAMWWVRQAPGKGLEWVSVIGETPERQAYADSVKGRFTISRDNSKSTLYLQMNSLRAEDTAVYYCAREWMDHSRPYYYYGMDVWGQGTLVTVSS scFv (part 2 of 2): SYELTQPPSVSVSPGQTASITCTTPHFNSKFASWYQQKPGQSPVLVIYRDDKRPSGIPERFSASNSGHTATLTISGTQAMDEADYYCQAQDSTTRVFGGGTRLTVL
recorded result: 119000

molecule: Abet0379: optimized anti-Aβ1-42 clone derived from Abet0144-GL (protein, left off: small tags and cut ends, optimized anti-Aβ1-42 clone derived from Abet0144-GL) scFv (part 1 of 2): EVQLLESGGGLVQPGGSLRLSCAASGFDFAETPLWWVRQAPGERLEWVSVIGSNQNKTAYADSVKGRFTISRDNSKDTLYLQMNSLRAEDTAVYYCAREWMDHSRPYYYYGMDVWGQGTLVTVSS scFv (part 2 of 2): QSVLTQPPSVSVSPGQTASITCSGHNLEDKFASWYQQKSGQSPVLVIYRDDKRPSGIPERFSASNSGHTATLTISGTQATDGADYYCATQDNFTRVFGGGTKLTVL
recorded result: 134000
